I'd be grateful if you could share measured phosphorylation enrichment for these entries.
# Target system: EPHB2 (UniProt P29323)
# Sequence (P29323 whole entry, looked up): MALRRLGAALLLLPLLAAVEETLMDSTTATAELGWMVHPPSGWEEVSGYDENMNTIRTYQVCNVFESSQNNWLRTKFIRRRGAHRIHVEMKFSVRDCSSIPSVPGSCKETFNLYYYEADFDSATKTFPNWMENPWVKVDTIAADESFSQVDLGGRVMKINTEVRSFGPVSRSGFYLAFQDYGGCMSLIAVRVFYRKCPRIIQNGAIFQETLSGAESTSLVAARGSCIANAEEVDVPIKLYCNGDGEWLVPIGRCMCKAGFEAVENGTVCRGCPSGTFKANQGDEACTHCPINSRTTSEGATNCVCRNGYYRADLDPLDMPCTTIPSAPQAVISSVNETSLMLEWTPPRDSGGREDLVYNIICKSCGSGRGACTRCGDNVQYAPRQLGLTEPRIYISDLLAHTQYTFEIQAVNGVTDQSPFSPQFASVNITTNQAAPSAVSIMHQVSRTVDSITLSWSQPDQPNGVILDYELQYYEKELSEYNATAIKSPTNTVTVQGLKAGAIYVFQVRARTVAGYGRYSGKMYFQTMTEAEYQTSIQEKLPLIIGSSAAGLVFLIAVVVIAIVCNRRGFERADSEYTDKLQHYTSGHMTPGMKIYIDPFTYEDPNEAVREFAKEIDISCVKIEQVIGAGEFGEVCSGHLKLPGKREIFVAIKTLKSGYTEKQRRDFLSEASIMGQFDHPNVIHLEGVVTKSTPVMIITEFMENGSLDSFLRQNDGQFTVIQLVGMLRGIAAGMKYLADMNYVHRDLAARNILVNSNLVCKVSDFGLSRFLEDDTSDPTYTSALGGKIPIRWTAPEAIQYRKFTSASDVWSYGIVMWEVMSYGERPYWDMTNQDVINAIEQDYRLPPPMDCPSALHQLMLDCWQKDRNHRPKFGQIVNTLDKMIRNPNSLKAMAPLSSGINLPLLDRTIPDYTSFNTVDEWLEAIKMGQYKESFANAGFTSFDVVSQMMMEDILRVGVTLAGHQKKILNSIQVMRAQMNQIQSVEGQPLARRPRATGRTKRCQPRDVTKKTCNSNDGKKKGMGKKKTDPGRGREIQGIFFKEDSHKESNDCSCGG
# Method description: phosphorylation enrichment, bacterial display (enrichment ratio); higher = better substrate or ligand; peptides without Tyr show the background
Give bare numbers.

{"Chain sequence": "FGYPGYQCKHY [TIMP3_Y177_S179C]", "phosphorylation enrichment": 0.519}

Please report phosphorylation enrichment for every entry that follows.
1. CPSLLYSPVSS [CAMKK2_Y128_P127L]
2. SVVVPCEPPEV [TP53_Y220_Y220C]
3. GPGLVYGVANK [FLNB_Y1833]
4. FKGKNYKPLDL [RPL35_Y78_K77N_YF]
5. WNDPDYMDSRR [GAA_Y407_L405P]

Result:
[4.13, 0.671, 0.405, 0.385, 0.687]

* * *

I'd be grateful if you could share measured phosphorylation enrichment for these entries.
# Target system: Fes (UniProt P07332)
# Sequence (P07332 whole entry, looked up): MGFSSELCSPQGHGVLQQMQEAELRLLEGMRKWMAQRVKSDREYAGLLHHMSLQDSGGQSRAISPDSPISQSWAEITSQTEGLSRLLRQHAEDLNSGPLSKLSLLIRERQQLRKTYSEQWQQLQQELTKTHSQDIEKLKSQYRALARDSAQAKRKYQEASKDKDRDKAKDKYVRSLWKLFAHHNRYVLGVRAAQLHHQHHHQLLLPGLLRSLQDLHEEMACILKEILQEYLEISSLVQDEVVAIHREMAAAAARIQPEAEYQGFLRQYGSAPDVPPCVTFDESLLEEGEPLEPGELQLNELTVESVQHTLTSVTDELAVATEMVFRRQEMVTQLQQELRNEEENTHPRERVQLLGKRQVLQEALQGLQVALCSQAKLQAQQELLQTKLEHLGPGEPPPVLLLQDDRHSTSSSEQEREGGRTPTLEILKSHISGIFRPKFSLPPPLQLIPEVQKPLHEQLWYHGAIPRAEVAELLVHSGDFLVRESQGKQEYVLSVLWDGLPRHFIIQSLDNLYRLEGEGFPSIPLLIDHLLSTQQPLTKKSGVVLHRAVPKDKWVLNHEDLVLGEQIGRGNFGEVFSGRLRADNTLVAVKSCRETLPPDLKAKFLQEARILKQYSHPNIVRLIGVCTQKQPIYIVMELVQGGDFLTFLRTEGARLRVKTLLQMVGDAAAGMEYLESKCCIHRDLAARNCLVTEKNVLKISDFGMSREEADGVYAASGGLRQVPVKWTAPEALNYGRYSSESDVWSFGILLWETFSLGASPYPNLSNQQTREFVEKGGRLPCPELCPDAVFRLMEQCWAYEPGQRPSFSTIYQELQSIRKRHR
# Method description: phosphorylation enrichment, bacterial display (enrichment ratio); higher = better substrate or ligand; peptides without Tyr show the background
Numbers only.

Record excerpt, results attached:
{"Chain sequence": "FEPDAYFDLDQ [ELP5_Y302_D303Y_YF]", "Target system": "Fes (UniProt P07332)", "Measurement": 1.34}
{"Chain sequence": "KRISCYEASFQ [PFKFB3_Y194_YF]", "Target system": "Fes (UniProt P07332)", "Measurement": 1.11}
{"Chain sequence": "VSLLPYFPAIM [IPO4_Y518_A513V]", "Target system": "Fes (UniProt P07332)", "Measurement": 1.32}
{"Chain sequence": "ERSMSYCDESR [SMG1_Y143_S144C]", "Target system": "Fes (UniProt P07332)", "Measurement": 0.77}
{"Chain sequence": "ARTNEYKIIRS [INA_Y87_T92S]", "Target system": "Fes (UniProt P07332)", "Measurement": 0.563}
{"Chain sequence": "TFLRTYTDTMQ [TSPAN7_Y124_A127T]", "Target system": "Fes (UniProt P07332)", "Measurement": 0.76}
{"Chain sequence": "RVNSAYQDKVS [ACAN_Y100]", "Target system": "Fes (UniProt P07332)", "Measurement": 0.796}
{"Chain sequence": "VGRVGYVSGWG [HP_Y280]", "Target system": "Fes (UniProt P07332)", "Measurement": 0.792}
{"Chain sequence": "YTHSDYQYGQR [PKP2_Y166_S169G]", "Target system": "Fes (UniProt P07332)", "Measurement": 0.496}
{"Chain sequence": "RKRQFYLYKGK [RSPO4_Y112_C107R]", "Target system": "Fes (UniProt P07332)", "Measurement": 0.432}

Please report phosphorylation enrichment for every entry that follows.
1. TSQSQYFSFRE [CCDC170_Y323]
2. PRPAGYPSTVS [CACNA1C_Y1832]
3. HNQDGYSYLSR [LDLR_Y845_P848L]
4. NSVLVYRNGDP [DCDC2_Y22_K17N]
5. RSFSPYDFQPC [TNS1_Y796_YF]

Result:
1: 0.891; 2: 0.493; 3: 0.681; 4: 0.678; 5: 1.29

Please report phosphorylation enrichment for every entry that follows.
1. LEAVSYSSPFA [RNLS_Y190_R193P_YF]
2. DEEFEYMNRRR [ERBB3_Y1199_YF]
3. LFCVHYFHRTF [SRD5A2_Y91]
4. YPKVRYHWLVL [APTX_Y214_A212V]
5. FLEKFYKFGSR [NNMT_Y25_YF]
6. RCNHPYLINGA [CHD7_Y1256_C1251R]
7. NAMRRHIEEFQ [MNS1_Y244_Y244H]
8. ALRHFYKLNII [ETV6_Y402_YF]

Result:
1. 1.06
2. 1.18
3. 2.73
4. 1.35
5. 0.746
6. 0.68
7. 0.741
8. 1.03

* * *

I'd be grateful if you could share measured phosphorylation enrichment for these entries.
# Target system: EPHB1 (UniProt P54762)
# Sequence (P54762 whole entry, looked up): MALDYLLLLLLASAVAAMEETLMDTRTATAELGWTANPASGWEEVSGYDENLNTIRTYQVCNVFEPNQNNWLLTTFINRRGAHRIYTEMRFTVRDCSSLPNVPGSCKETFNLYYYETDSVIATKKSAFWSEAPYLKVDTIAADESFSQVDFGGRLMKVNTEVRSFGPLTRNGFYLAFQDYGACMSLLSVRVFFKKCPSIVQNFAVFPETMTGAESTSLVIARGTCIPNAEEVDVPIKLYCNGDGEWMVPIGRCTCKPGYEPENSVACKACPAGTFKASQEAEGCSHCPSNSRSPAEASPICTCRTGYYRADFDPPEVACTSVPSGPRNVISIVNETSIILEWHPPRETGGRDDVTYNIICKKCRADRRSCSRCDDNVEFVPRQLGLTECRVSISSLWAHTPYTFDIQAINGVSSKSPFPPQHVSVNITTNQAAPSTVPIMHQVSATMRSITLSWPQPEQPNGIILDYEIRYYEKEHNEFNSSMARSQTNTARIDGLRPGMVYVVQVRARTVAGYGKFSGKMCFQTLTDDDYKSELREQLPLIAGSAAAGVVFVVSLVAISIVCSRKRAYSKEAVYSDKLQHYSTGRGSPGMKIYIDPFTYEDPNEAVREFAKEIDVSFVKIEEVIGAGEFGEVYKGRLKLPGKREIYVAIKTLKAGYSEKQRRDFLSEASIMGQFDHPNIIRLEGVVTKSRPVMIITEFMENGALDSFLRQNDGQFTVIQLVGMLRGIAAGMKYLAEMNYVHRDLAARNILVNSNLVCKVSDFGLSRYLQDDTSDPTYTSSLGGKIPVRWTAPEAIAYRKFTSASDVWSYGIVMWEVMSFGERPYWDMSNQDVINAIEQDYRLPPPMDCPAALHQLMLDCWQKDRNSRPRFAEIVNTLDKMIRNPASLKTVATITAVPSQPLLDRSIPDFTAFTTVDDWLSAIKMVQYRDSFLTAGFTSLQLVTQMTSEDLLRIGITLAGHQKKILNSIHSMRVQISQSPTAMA
# Method description: phosphorylation enrichment, bacterial display (enrichment ratio); higher = better substrate or ligand; peptides without Tyr show the background
Give bare numbers.

Please report phosphorylation enrichment for every entry that follows.
1. SPDMLYQFLKQ [RPAP3_Y567_YF]
2. FTTIHYNFMCN [TP53_Y234_C229Y_YF]
3. VRFMEYETQVK [TARDBP_Y155_T153M]

Result:
1: 0.943; 2: 0.74; 3: 1.25

* * *

# Test system: AncSZ
# Method description: phosphorylation enrichment, bacterial display (enrichment ratio); higher = better substrate or ligand; peptides without Tyr show the background
I'd be grateful if you could share measured phosphorylation enrichment for these entries.
Numbers only.

{"Chain sequence": "GGMTEYKLVVV [KRAS_Y4]", "phosphorylation enrichment": 0.852}
{"Chain sequence": "CDYKKYGKGLR [ZNF445_Y433_Y428C]", "phosphorylation enrichment": 0.565}
{"Chain sequence": "DTQNSYWCATS [TSC1_Y304_G305W]", "phosphorylation enrichment": 0.952}
{"Chain sequence": "SLESAYPEVSQ [TTF1_Y357_G360V]", "phosphorylation enrichment": 0.951}
{"Chain sequence": "FHKALYTVRSY [PDE6C_Y266]", "phosphorylation enrichment": 0.814}
{"Chain sequence": "GQLIFYAPPEW [CNTN6_Y315]", "phosphorylation enrichment": 1.39}

Please report phosphorylation enrichment for every entry that follows.
1. SAQHHYESLQT [BIN1_Y157_R154Q]
2. RRIHSYRGYLW [VHL_Y112_H115Y]
3. KSPGEYVNIEF [IRS1_Y896]
4. MKKMHYVDPDR [ST3GAL5_Y99_H104R]
5. LLNPRYNLPLD [TOM1L1_Y109]
6. HNLDYYKKTTN [FGFR3_Y648]

Result:
1: 0.763; 2: 0.646; 3: 0.906; 4: 0.407; 5: 1.14; 6: 0.829

Please report phosphorylation enrichment for every entry that follows.
1. CNSFRYGGGGG [NPPA_Y151]
2. KRISCYEASFQ [PFKFB3_Y194_YF]

Result:
1. 0.857
2. 0.973

* * *

# Target system: Grb2 SH2 (UniProt P62993)
# Sequence (P62993 whole entry, looked up): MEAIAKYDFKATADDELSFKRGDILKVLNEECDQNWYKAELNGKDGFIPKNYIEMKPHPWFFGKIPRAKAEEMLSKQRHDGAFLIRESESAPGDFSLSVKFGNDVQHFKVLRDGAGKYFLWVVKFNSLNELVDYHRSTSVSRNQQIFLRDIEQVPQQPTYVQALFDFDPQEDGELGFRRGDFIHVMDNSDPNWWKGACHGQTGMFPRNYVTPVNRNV
# Method description: SH2 binding enrichment of the phosphorylated peptide, bacterial display (enrichment ratio); higher = better substrate or ligand; peptides without Tyr show the background
Measured parameter: SH2 binding enrichment
One number for each entry.

{"Chain sequence": "LFMGDYVGRGF [PPP2CA_Y86_D88G_YF]", "SH2 binding enrichment": 1.01}
{"Chain sequence": "HNLFSYPTKFE [MYO3A_Y1396_H1400Y_YF]", "SH2 binding enrichment": 0.706}
{"Chain sequence": "EVKAQNEDIAQ [KRT1_Y358_Y358N]", "SH2 binding enrichment": 0.977}
{"Chain sequence": "NACGLYHKMNG [GATA5_Y216]", "SH2 binding enrichment": 0.81}

Then there is this sequence:
KSMFVYCTPNK [ATP2A2_Y497_S495F] has a reported SH2 binding enrichment of 0.925

* * *

# Test system: c-Src
# Method description: phosphorylation enrichment, bacterial display (enrichment ratio); higher = better substrate or ligand; peptides without Tyr show the background
Measured phosphorylation enrichment determines class: low: < 0.4; intermediate: ≥ 0.4 and < 0.8; high: ≥ 0.8

{"Chain sequence": "VTAALYGRLFE [BTD_Y536_YF]", "Classification": "high"}
{"Chain sequence": "RMSSSYPTGLA [ADM_Y52]", "Classification": "low"}
{"Chain sequence": "HLELNYKEDEY [MME_Y502_Y497H]", "Classification": "intermediate"}
{"Chain sequence": "RKRQFYLYKGK [RSPO4_Y112_C107R]", "Classification": "intermediate"}
{"Chain sequence": "DEEFEYMNRRR [ERBB3_Y1199_YF]", "Classification": "intermediate"}
{"Chain sequence": "SPDMLYQFLKQ [RPAP3_Y567_YF]", "Classification": "high"}
{"Chain sequence": "AAPAAHDAADT [GAMT_Y27_Y27H]", "Classification": "low"}
{"Chain sequence": "PGVDIYISPNM [PADI3_Y51]", "Classification": "high"}
{"Chain sequence": "DAICFYRMENA [NPHS2_Y195_YF]", "Classification": "high"}
{"Chain sequence": "SSVPDYLAAVD [GLB1_Y154_D151V]", "Classification": "low"}

Task: Assign a category based on measured phosphorylation enrichment for EATKGHLDDPT [G6PD_Y322_Y322H] and give only the class name.
Result: intermediate

Task: Assign a category based on measured phosphorylation enrichment for TLNVRYESVQA [CEACAM7_Y236] and give only the class name.
Result: intermediate
